Here we gather pIC50 data for PIK3CD (Human) (UniProt O00329) reported by several publications.
pIC50: −log10 of the molar value.

See these solved cases before continuing.
# compound, quantity, endpoint.value
data = [
    ("Cc1ccccc1-n1c(Cn2nc(-c3cccc(O)c3)c3c(N)ncnc32)nc2snc(C)c2c1=O", "pIC50", "> 6.00"),
    ("Cc1cccc2cc(Cn3nc(/C=C4/CCNC4=O)c4c(N)ncnc43)n(-c3ccccc3F)c(=O)c12", "pIC50", "> 5.00"),
    ("Cn1ncc2c(-c3cccc(CO)c3)nc(N3CCOCC3)nc21", "pIC50", "5.00 to 7.00"),
]

Query string: Provide measured pIC50 value, entry: Cc1cccnc1-n1c(Cn2nc(C#C[C@@H](C)O)c3c(N)ncnc32)cc2cccc(C)c2c1=O
Result string: > 6.00

* * *

pIC50: −log10 of the molar value.
Consider the following pIC50 data for PIK3CD (Human) (UniProt O00329), collected from several reports.

# compound, pIC50
records = [
    ("CS(=O)(=O)N1CCC(Nc2ncc3cc(C#N)c(=O)n(C4CC5CC5C4)c3n2)CC1 (stereo not drawn)", "< 4.30"),
    ("Cc1ccccc1N1C(=O)C2C(C=NN2C)N=C1Cn1nc(-c2cc(O)cc(F)c2)c2c(N)ncnc21 (stereo not drawn)", "> 7.00"),
]

Query string: Give measured pIC50 for CC(=O)Nc1nc2ccc(-c3nn(Cc4cc5cccc(C)c5c(=O)n4C4CC4)c4ncnc(N)c34)cc2s1 (PIK3CD (Human) (UniProt O00329)).
Result string: > 7.00

* * *

pIC50 for UniProtKB O00329 - collated from the literature.
pIC50: −log10 of the molar value.

Illustrative cases are given below, each with its answer.
# chemical.structure, pIC50
records = [
    ("Cc1cccc2cc(Cn3nc(-c4cn[nH]c4)c4c(N)ncnc43)n(C3CCN(C)CC3)c(=O)c12", "> 6.00"),
    ("Cc1cccc2cc(Cn3nc(C(C)C)c4c(N)ncnc43)n(-c3ccccc3)c(=O)c12", "> 5.00"),
]

Query string: GET pIC50 where system = UniProtKB O00329 and item = C[C@@H]1COCCN1C1CN(c2cnc3ccc(-c4ccc5oc(N)nc5c4)nc3n2)C1
Result string: < 5.00

Query string: Write down the reported pIC50 (system: UniProtKB O00329) of Cc1nc2c(N[C@@H](C)c3cc4cccc(C)c4c(=O)n3-c3ccccc3)ncnc2[nH]1
Result string: > 5.00

Query string: # lookup: UniProtKB O00329 pIC50, key = Nc1nc2cc(-c3ccc4ncc(N5CCNC(=O)C5)nc4c3)ccc2o1
Result string: > 5.00

Query string: Report measured pIC50 on UniProtKB O00329; entry: Cc1cccc2cc(Cn3nc(-c4cc(O)cc(F)c4)c4c(N)ncnc43)n(C3CC3)c(=O)c12
Result string: > 7.00

Query string: System UniProtKB O00329. Read-out pIC50. Item Nc1ncnc2c1c(-c1cc(O)c(F)c(C(F)(F)F)c1)nn2C1Cc2ccccc2C1 . Report value.
Result string: 8.60

Query string: Give measured pIC50 for CN1CCN(c2ccc(Nc3ccc4cc(C#N)c(=O)n(C5CCCC5)c4n3)cc2)CC1 (UniProtKB O00329).
Result string: < 4.30

* * *

This section presents IC50 values reported for UniProt O00329 in the literature.

# chemical.structure, IC50
records = [
    ("Nc1nc2cc(-c3ccc4ncc(C(=O)N5CCC(O)CC5)n4c3)ccc2o1", "> 10000 nM"),
    ("Cc1cccc2cc(Cn3nc(-c4cn[nH]c4)c4c(N)ncnc43)n(-c3ccccc3C(F)(F)F)c(=O)c12", "< 100 nM"),
    ("CC(=O)Nc1nc2ccc(-c3nn(Cc4cc5cccc(C)c5c(=O)n4-c4ccccc4)c4ncnc(N)c34)cc2s1", "< 100 nM"),
]

Query string: Enter recorded IC50 with UniProt O00329 for C[C@H](Nc1ccnc2ccnn12)c1cc2cccc(Cl)c2c(OCCN2CCCC2)n1 here.
Result string: < 100 nM

Query string: Identify measured IC50 obtained with UniProt O00329 for Cc1csc2nc(Cn3nc(Br)c4c(N)ncnc43)n(-c3ccccc3Cl)c(=O)c12 .
Result string: < 100 nM

Query string: Tell me IC50 of C[C@H](Nc1ncnc2cccnc12)c1cc2cccc(Cl)c2c(C(=O)NC2CCOCC2)n1 when tested on UniProt O00329.
Result string: < 1000 nM

Query string: Tell me IC50 of CC(C)(N)C(=O)N1CCN(c2ccc3ncc(-c4ccc5oc(N)nc5c4)cc3n2)CC1 when tested on UniProt O00329.
Result string: > 10000 nM

Query string: Give IC50; test system UniProt O00329; compound CC(C)N1CCC(Oc2nc([C@H](C)Nc3ncnc4cccnc34)cc3cccc(-c4cnn(C)c4)c23)CC1
Result string: < 100 nM

* * *

Assembled from different publications: IC50 for PIK3CD (Human).

Study these solved cases before continuing.
# chemical.structure, IC50
measured = [
    ("Cc1cccc2cc([C@H](C)Nc3ncnc4[nH]cc(Cl)c34)n(-c3ccccc3)c(=O)c12", "< 100 nM"),
    ("Nc1nc2cc(-c3ccc4ncc(-c5cccnc5)cc4n3)ccc2o1", "< 10000 nM"),
    ("C[C@H](NC(=O)c1nccnc1N)c1nc2cccc(Cl)c2c(=O)n1-c1ccccc1", "< 100 nM"),
    ("CCN1CCC(NC(=O)c2nc([C@H](C)Nc3ncnc4scnc34)cc3cccc(Cl)c23)CC1", "< 100 nM"),
    ("COCCN(C)C(=O)c1nc([C@H](C)Nc2ncnc3cccnc23)cc2cccc(Cl)c12", "< 1000 nM"),
]

Query string: Check PIK3CD (Human) data and give IC50 for Cc1ccccc1-n1c(Cn2nc(-c3ccc(Cl)c(O)c3)c3c(N)ncnc32)cc2cccc(C)c2c1=O .
Result string: < 100 nM

Query string: Enter recorded IC50 with PIK3CD (Human) for CNCc1cccc2cc([C@H](C)NC(=O)c3c(N)nn4cccnc34)n(-c3ccccc3)c(=O)c12 here.
Result string: 1000 to 10000 nM

Query string: With PIK3CD (Human) as the test system, provide measured IC50 for this molecule: C#Cc1cccc2cc([C@H](C)NC(=O)c3c(N)nn4cccnc34)n(-c3ccccc3)c(=O)c12
Result string: 100 to 1000 nM

* * *

pIC50: −log10 of the molar value.
pIC50 for UniProtKB O00329, merged from several publications.
quantity: pIC50

# molecule, pIC50
rows = [
    ("COc1ncc(-c2nc(N3CCOCC3)nc3c(CN4CCC(N(C)C(C)C)CC4)c(C)sc23)cc1NS(C)(=O)=O", 8.19),
]

I: CCN(CC)c1ncc2c(n1)-c1sc(NC(=O)N3CCC[C@@]3(C)C(N)=O)nc1CC2
II: CC(N[C@H]1CC[C@H](Nc2nc(N3CCOCC3)nc(-n3c(C(F)F)nc4ccccc43)n2)CC1)C1CCCCC1 (some centres unmarked)
III: COc1ncc(-c2nc(N3CCOCC3)nc3c(OC4CCC(N5CCCCC5)CC4)cc(F)cc23)cc1NS(C)(=O)=O (centres unmarked)
Query string: # rank_down: sort by pIC50, max first Reply: labels, ordered per the request.
Result string: II, III, I
(II: 8.06, III: 7.77, I: 6.66)

A: C[C@H]1COC(=O)N1c1cc(-c2cnc(N)nc2C(F)(F)F)nc(N2CCOCC2)n1
B: CC(=O)NC[C@@H]1CCN(C(=O)Nc2nc(C)c(-c3ccnc(C(C)(C)C(F)(F)F)c3)s2)[C@@H]1C(N)=O
C: CC[C@H](Nc1ncnc2[nH]cnc12)c1nc2cccc(F)c2c(=O)n1-c1cccc(CC(F)(F)F)c1
D: C#CCN(CC(C)(C)O)[C@H]1CC[C@H](CNc2nc(N3CCOCC3)cc(-n3c(C(F)F)nc4ccccc43)n2)CC1
E: C[C@H](O)CC(=O)N1CCC(c2nc(-c3cnc(N)c(-c4nnc(C(C)(C)C)o4)n3)n(C)n2)CC1
Query string: With regard to pIC50, arrange the entries in ascending order, please. Use the labels to give the ranking in the order requested.
Result string: B, C, E, A, D
(B: 6.16, C: 7.70, E: 7.92, A: 8.15, D: 8.64)

I: COc1ncc(-c2nc(N3CCOCC3)nc3c(OC4CN(C(=O)C(C)C)C4)cc(F)cc23)cc1NS(C)(=O)=O
II: NC(=O)[C@@H]1CCCN1C(=O)Nc1ncc(-c2ccnc(C3(C(F)(F)F)CCC3)c2)s1
Query string: // compare: I vs II , metric pIC50, want the smaller # respond with the chosen item's label
Result string: II
